- System: MS2 coat protein
- procedure_summary: apparent Kd, MS2 coat protein; higher = weaker binding; RNA-MaP array; FMN 200 µM where present
- reported_conditions: ligand present: flavin mononucleotide; designed as: OFF switch for flavin mononucleotide
# apparent Kd annotations
Hi, when you answer, please include the unit after the number. Thanks!

A selection of reference data follows.
GACUUGUAAGGAUAUCGUGCAAGUUUCAAAAGAGGCUUGUGCGAGAAGGUACAUGAGGAUCACCCAUGUAGGUU :: 0.0566 µM
UUGAGUUAGCAGGAUAUGGGCAGCAGGAUGCUUCCAGAAGGGCUGACAUGAGGAUCACCCAUGUUCCCAUGCUU :: 0.0636 µM

### Prompt Given the sequence UGGUACAUGAGGAUCACCCAUGUAAGAGCCCUCAUGCGAUGUAGAAGGAUUAUGCGAGUAGUGCAAUAGGAUAUACAUGAGUUU , what is its reported apparent Kd?
### Response 0.163 µM

### Prompt Now consider GCACUGGAUGUAGGAUAUCAGGACGAUAAGUCCUGAGAAGGACAUGAGGAUCACCCAUGUAAACCUCACCAGUGCUAUAAUAUA .
### Response 0.0211 µM

### Prompt Then this sequence: GCUAGUAUUGCAGGAUAUUGAGAAUAAUUUUGGCAAGAAGGGCAUAACAUGAGGAUCACCCAUGUAUUCCUUAGUGAUACUAGC
### Response 0.00611 µM

### Prompt Next up: GAGCUCGAUGAGAAGGGUUACAUGAGGAUCACCCAUGUCGACCUUGGCGUAACAGGAUAUCACCGGGCUCAGUGCGUUGACCCA
### Response 0.121 µM

### Prompt And then UAUUAAUGCAAGGAUAUGCUUUUAAUUUUUUUUGCAGAAGGUGCAACAUGAGGAUCACCCAUGUUUCAGGGUAU , what is it?
### Response 0.0576 µM
